Ref: patent US20070010669A1

- System: Murine erythroleukemia (MEL) cells
- assayInfo: MEL cell differentiation assay (benzidine assay; cell growth by Coulter Counter)
- Type: cell-based
- conditionNotes: Table 1; benzidine-positive cells at Opt. concentration
quantityMeasured: MEL Differentiation % B+

{"columns": ["compound", "quantityMeasured", "reading"],
 "data": [
  ["O=C(CCCCCCC(=O)Nc1ccccc1)NO [SAHA, suberoylanilide hydroxamic acid, reference compound]", "MEL Differentiation % B+", "68%"],
  ["O=C(CCCCC[C@H](NC(=O)OCc1ccccc1)C(=O)Nc1cccc2cccnc12)NO", "MEL Differentiation % B+", "8%"],
  ["O=C(CCCCC[C@H](NC(=O)c1ccccc1)C(=O)Nc1ccccc1)NO", "MEL Differentiation % B+", "44%"],
  ["O=C(CCCCC[C@H](NC(=O)OCc1ccccc1)C(=O)Nc1ccccc1)NO", "MEL Differentiation % B+", "16%"],
  ["O=C(CCCCC[C@H](NC(=O)c1cccnc1)C(=O)Nc1ccccc1)NO", "MEL Differentiation % B+", "27%"]
]}
